B1: TPR t1 (parent)
chain: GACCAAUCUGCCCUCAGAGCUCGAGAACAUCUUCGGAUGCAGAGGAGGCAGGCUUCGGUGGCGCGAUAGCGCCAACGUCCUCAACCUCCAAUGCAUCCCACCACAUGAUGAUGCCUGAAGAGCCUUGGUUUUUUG

# Variants of: B1
# method-description: polymerase ribozyme fitness, log enrichment relative to wild type (log ratio); higher = more active; in vitro selection for triplet polymerase activity
outcome-measure: polymerase ribozyme fitness (log ratio)

[in] Looking for the measured polymerase ribozyme fitness (log ratio) of G71A C114G , can you help?
[out] -3.49

[in] polymerase ribozyme fitness (log ratio) lookup needed for C70A C98U , thanks.
[out] -2.73

[in] May I ask what polymerase ribozyme fitness (log ratio) has been recorded for G63C C104U ?
[out] -0.59

[in] Which polymerase ribozyme fitness (log ratio) reading was recorded for the variant U7A C13A ?
[out] -0.751

[in] What polymerase ribozyme fitness (log ratio) value was documented for this variant, U32A C40G C56A A84U ?
[out] -6.15

[in] I am curious: what polymerase ribozyme fitness (log ratio) value has been reported for C76G G93A C104U U133A ?
[out] -0.348

[in] Query: polymerase ribozyme fitness (log ratio); subject: C11U A18U C34U C64G C79U C123A
[out] -5.92

[in] Which measured polymerase ribozyme fitness (log ratio) value corresponds to C12A C49A C70A C97A G120U U130G ?
[out] -5.85

[in] Which value of polymerase ribozyme fitness (log ratio) has been reported for C15G G120C in the records?
[out] -0.975

[in] Which polymerase ribozyme fitness (log ratio) is reported for this variant? U55C C72G C79U
[out] 0.018

[in] // returns reported polymerase ribozyme fitness (log ratio) for input A46U G48U C76A U78C C82U
[out] -5.9

[in] Can you look up the measured polymerase ribozyme fitness (log ratio) of C20A G47U C72A A111C for me?
[out] -3.96

[in] polymerase ribozyme fitness (log ratio) for C11A U126A U129C ?
[out] -2.33

[in] Quick one: polymerase ribozyme fitness (log ratio) of G17U C53G U96C U126C ?
[out] -4.06

[in] Please give the measured polymerase ribozyme fitness (log ratio) for this variant: C13U A121C
[out] 1.84

[in] Find the recorded polymerase ribozyme fitness (log ratio) belonging to C12A A46U G47C and report it.
[out] -1.36

[in] Which polymerase ribozyme fitness (log ratio) reading was recorded for the variant C102U C124U ?
[out] -0.914

[in] What does the record list as polymerase ribozyme fitness (log ratio) for A18U G25A C34G C53U G61A A100U ?
[out] -8.02

[in] Quick one: polymerase ribozyme fitness (log ratio) of A90U A105G ?
[out] -3.78

[in] Could you share which polymerase ribozyme fitness (log ratio) value was measured for G36C C49G C70U ?
[out] -2.37

[in] // returns reported polymerase ribozyme fitness (log ratio) for input C13U A29C G61U
[out] -2.08

[in] polymerase ribozyme fitness (log ratio) for C11U C15A G45U C72A U129A ?
[out] -5.41

[in] Fill in: polymerase ribozyme fitness (log ratio) of G10U C13G C73U G122U is ___
[out] -0.626
